- targetUnderTest: GST-JAK1 enzyme (Homo sapiens (Human), UniProt P23458)
- Sequence (P23458 whole entry): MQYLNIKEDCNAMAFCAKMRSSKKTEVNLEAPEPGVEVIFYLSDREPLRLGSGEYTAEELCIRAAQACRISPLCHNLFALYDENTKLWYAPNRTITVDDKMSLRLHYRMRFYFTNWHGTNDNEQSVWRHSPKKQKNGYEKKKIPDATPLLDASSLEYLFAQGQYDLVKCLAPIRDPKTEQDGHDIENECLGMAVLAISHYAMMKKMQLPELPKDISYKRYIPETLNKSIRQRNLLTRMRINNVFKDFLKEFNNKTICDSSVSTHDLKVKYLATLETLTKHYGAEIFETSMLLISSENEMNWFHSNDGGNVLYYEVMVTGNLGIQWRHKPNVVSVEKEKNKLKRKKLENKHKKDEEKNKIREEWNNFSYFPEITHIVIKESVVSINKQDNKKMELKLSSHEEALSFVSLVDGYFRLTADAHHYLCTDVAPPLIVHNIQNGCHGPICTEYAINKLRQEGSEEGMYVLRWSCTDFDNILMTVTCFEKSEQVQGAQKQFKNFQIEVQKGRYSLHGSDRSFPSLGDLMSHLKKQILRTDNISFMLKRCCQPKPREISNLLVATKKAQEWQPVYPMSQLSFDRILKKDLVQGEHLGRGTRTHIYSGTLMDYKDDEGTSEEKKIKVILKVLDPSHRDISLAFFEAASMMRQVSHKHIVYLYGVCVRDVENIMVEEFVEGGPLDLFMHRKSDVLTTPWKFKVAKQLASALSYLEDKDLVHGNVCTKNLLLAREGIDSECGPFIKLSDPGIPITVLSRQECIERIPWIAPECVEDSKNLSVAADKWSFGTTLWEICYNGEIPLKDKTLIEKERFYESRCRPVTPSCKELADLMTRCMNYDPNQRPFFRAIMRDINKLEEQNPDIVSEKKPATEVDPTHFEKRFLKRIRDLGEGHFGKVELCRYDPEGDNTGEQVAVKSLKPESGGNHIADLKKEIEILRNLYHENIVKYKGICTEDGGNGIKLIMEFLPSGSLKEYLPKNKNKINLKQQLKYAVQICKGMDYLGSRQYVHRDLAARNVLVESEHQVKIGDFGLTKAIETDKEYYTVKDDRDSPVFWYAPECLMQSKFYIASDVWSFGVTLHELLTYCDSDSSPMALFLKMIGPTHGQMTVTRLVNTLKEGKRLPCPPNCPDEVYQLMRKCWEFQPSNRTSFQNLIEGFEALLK
- assayInfo: JAK1 Kinase Assay Protocol
- Format: biochemical
- measurementSetup: read-out: LLE_JAK1 (IC50)
endpointName: IC50 (nM)
The response must be a number in nM with no trailing unit.

Prompt: Requested read-out: IC50. Entry: C[C@@H]1[C@H]2CN(C(=O)CF)C[C@H]2C[C@H]1Nc1c(C(N)=O)cnn2cc(-c3cnc(N)c(F)c3)cc12
Completion: 1.2

* * *

- targetUnderTest: GST-JAK1 enzyme (Homo sapiens (Human), UniProt P23458)
- assayInfo: JAK1 Kinase Assay Protocol
- Format: biochemical
- measurementSetup: JAK1 kinase inhibition; read-out: LLE_JAK1 (IC50)
pIC50: −log10 of the molar value. Counter-ions that a name gives are not always drawn.
Assign class by pIC50: not lower than 8 means Satisfied; lower than 8 means Not satisfied.

Please review the entries below; each comes with its answer.
CS(=O)(=O)N1CCC[C@H](Nc2c(C(N)=O)cnn3cc(-c4ccccc4)cc23)C1: Not satisfied
CO[C@H]1CN(C(=O)C2(C#N)CC2)C[C@H]1Nc1c(C(N)=O)cnn2cc(-c3ccc(C#N)cc3)cc12: Satisfied
Cn1nccc1-c1cc2c(NC3CCOCC3)c(C(N)=O)cnn2c1: Not satisfied
CNC(=O)c1cccc(-c2cc3c(N[C@@H]4CN(C(=O)C5(C#N)CC5)C[C@@H]4OC)c(C(N)=O)cnn3c2)c1: Satisfied
NC(=O)c1cnn2cc(-c3ccc(F)cc3)cc2c1NC1CCOCC1: Not satisfied

Prompt: Does the molecule CCC(=O)N1C[C@H]2C[C@@H](Nc3c(C(N)=O)cnn4cc(-c5ccc(F)nc5)cc34)[C@H](C)[C@H]2C1 have recorded pIC50 that is 8 or more?
Completion: Satisfied

Prompt: Same for CC[C@@H]1CN(C(=O)[C@H](C)O)CC[C@H]1Nc1c(C(N)=O)cnn2cc(-c3cnn(CC(C)C)c3)cc12
Completion: Satisfied

Prompt: Same for CC[C@H]1CN(C(=O)C2(C#N)CC2)C[C@H]1Nc1c(C(N)=O)cnn2cc(-c3cn(C)nc3C)cc12
Completion: Satisfied

Prompt: Same for CCNC(=O)c1ccc(-c2cc3c(N[C@@H]4CN(C(=O)C(C)(C)C#N)C[C@@H]4CC)c(C(N)=O)cnn3c2)cn1
Completion: Satisfied

Prompt: Same for CCOc1ncc(-c2cc3c(N[C@@H]4CN(C(=O)C5(C#N)CC5)C[C@@H]4CF)c(C(N)=O)cnn3c2)cn1
Completion: Satisfied

Prompt: Same for CC1(F)COCC1Nc1c(C(N)=O)cnn2cc(N3CCCC3=O)cc12 (stereo not drawn)
Completion: Not satisfied

Prompt: Same for C[C@H]1CN(c2ccc(C#N)cn2)C[C@H]1Nc1c(C(N)=O)cnn2cc(-c3cnn(CC(=O)N4CC(F)(F)C4)c3)cc12
Completion: Satisfied

Prompt: Same for NC(=O)c1cnn2cc(-c3ccccc3)cc2c1N[C@@H]1CCCNC1 [Example 48, HCl]
Completion: Not satisfied

Prompt: Same for CCOC(=O)N1CCC[C@@H](Nc2c(C(N)=O)cnn3cc(-c4ccccc4)cc23)C1
Completion: Not satisfied

Prompt: Same for CC[C@H]1CN(c2ncc(C#N)s2)C[C@H]1Nc1c(C(N)=O)cnn2cc(-c3cnn(CC(C)C)c3)cc12
Completion: Satisfied
